Data origin: ChEMBL document CHEMBL1806374

# Tested on: MDA-MB-231
# assay_info: Antiproliferative activity against human MDA-MB-231 cells after 24 hrs by MTS assay
# Type: functional, cell-based
# protocol_conditions: MDA-MB-231, 24 h
measurement_label: pEC50
Friendly reminder that pEC50 comes from taking -log10 of the concentration in mol/L.

* N=c1n(CCCc2ccccc2)c2ccccc2n1CCCc1ccccc1 | 8.86
* CCOC(=O)C(C)N1C2=NC(=O)C(C)N2c2ccccc21 (centres undefined) | 8.69
* N=c1n(CC(=O)N/N=C/c2cccc(F)c2)c2ccccc2n1CC(=O)N/N=C/c1cccc(F)c1 | 11.70

As a next step, examine the compound that follows.
Considering CN1CCN(C(=O)Cn2c(=N)n(CC(=O)N3CCN(C)CC3)c3ccccc32)CC1 , its pEC50 with MDA-MB-231 was recorded as 8.80
